Provide the recorded OD450 for the entries that follow.
# TARGET OF ASSAY: T1, murine CD22 protein (ACROBiosystems, SI2-M52Ha) (murine, UniProt P35329 22-708)
# T1 construct: extracellular domain; also called murine CD22-ECD; murine CD22-ECD-His
# T1 sequence (looked up): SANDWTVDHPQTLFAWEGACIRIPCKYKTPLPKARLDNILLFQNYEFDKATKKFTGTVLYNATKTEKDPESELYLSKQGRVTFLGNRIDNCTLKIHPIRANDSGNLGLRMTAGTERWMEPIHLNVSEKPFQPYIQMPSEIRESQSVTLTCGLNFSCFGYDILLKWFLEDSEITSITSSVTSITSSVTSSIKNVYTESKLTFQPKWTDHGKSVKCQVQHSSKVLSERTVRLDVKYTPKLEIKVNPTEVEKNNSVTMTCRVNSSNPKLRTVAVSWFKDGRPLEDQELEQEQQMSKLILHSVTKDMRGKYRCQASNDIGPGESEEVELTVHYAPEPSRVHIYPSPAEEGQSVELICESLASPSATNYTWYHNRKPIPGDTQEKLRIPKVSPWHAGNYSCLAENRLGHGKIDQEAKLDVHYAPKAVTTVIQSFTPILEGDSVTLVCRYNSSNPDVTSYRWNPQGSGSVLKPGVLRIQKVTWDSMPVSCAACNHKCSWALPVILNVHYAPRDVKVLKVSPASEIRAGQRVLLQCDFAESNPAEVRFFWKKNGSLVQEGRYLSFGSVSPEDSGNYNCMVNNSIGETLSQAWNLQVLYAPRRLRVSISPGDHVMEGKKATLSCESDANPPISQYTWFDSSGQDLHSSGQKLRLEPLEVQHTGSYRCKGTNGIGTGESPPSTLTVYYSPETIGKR
# PROTOCOL DETAILS: ELISA, coated murine CD22, 0.0001 nM Ab

Value lookup for OD450; key = F2.70.2 human-murine chimeric antibody (antibody, human IgG1, lambda, V domains shown, Chimeric, human IgG1 / lambda) VH: EVQLVESGGGLVKPGGSLKLSCAASGFTFSDYGMNWFRQAPEKGLEWVAYISRGSHTIYYADTVKGRFTISRDNAKNTLFLQMTSLRSNDTAMYYCVRMAGYYAMDYWGQGTSVTVSS VL: QLVLTQSSSASFSLGASAKLTCTLSSQHSSYIIEWYQQQPLKPPKYVMELKKDGSHSTGDGIPDRFSGSSSGADRYLSISNIQPEDEAIYICGVGDTIKEQFVYVFGGGTKVTVLG 0.06 OD450

Value lookup for OD450; key = F1.105.11 human-murine chimeric antibody (antibody, human IgG1, kappa, V domains shown, Chimeric, human IgG1 / kappa; VL tied by name) VH: EVQLQQSGPVLVKPGASVKMSCKASGYTFSDYFMNWVKQSHGKSLEWIGIINSYSGGTSYNQKFKGKATLTVDKSSSTAYMELNSLTSEDSAVYYCARWMDYWGQGTSVTVSS VL: DVQITQSPSYLAASPGETITINCRTSESISKHLAWYQEKPGKTNKLLIYSGSTLQSGIPSRFSGSGSGTDFTLTISSLEPEDFAMYYCQQHNEYPWTFGGGTKLEIKR 0.05 OD450

Value lookup for OD450; key = F1.231.15 human-murine chimeric antibody (antibody, human IgG1, V domains shown, Chimeric: murine V regions on human IgG1 heavy constant region and kappa light constant region) VH: QVQLQQPGAELVKPGASVKLSCKTSGYTFTIYWMQWVKQRPGRGLEWIGRIDPHSGDTHYNENFTTKVTLTVDETSNTAYMHLSGLTSEDSAVYYCARRDYSYYVLDYWGQGTSVTVSS VL: DVVLTQTPLSLPVSLGDQASISCRSSQSLVHINGDTYLHWYLQKPGQSPKLLIYTVFNRFSGVPDRFSGSGSGTDFTLKISRVEAEDLGAYFCSQSTHVPYTFGGGTKLEIKR 0.05 OD450

Value lookup for OD450; key = F1.7.6 human-murine chimeric antibody (antibody, human IgG1, kappa, V domains shown, Chimeric, human IgG1 / kappa; VL tied by name) VH: EIQLQQSGPELVKPGTSVKVSCKASGYDFTRYNMYWVKQSHGKSLEWIGYIDPYNGDTRYNQKFKGKATLTVDKSSSTAYMHLNSLTSEDSAVYYCEAIYYDMEGYALDYWGQGTSVTVSS VL: DIVMSQSPSSLAVSVGEKVTMSCKSSQSLLYSNNQKNYLAWYQQKPGQSPKKLIYWASTRESGVPDRLTGSGSGTDFTLTISSVTAEDLAVYYCQQFYSYPWTFGGGTKLEIKR 0.06 OD450

Value lookup for OD450; key = F1.267.9 human-murine chimeric antibody (antibody, human IgG1, kappa, V domains shown, Chimeric, human IgG1 / kappa; VL tied by name) VH: EVQLQQSGPVLVKPGASVKMSCKASGYTFTDFYMNWAKQSHGKSLEWVGVINPYNGGINYNQKFKGKATLTVDKSSSTAYMEFNSLTSEDSAVYYCARRMEYHAMDYWGQGTSVTVSS VL: DIVLTQSPASLAVSLGQRATISCRASESVDNYGFDFIHWYQQKPGQPPKLLIYRASNLESGIPARFSGSGSRPDFTLTINPVETDDVATYYCQQSIKDPWTFGGGTKLEIKR 0.07 OD450
